Several publications report IC50 on ROCK2 (Homo sapiens, UniProt O75116); those values are gathered here.

>>> obs_value("COC(=O)N1CCC2(CC1)CN(c1ccc(-c3cn[nH]c3)cc1)C(=O)N2Cc1cccc(F)c1C")
"< 3 nM"
>>> obs_value("COc1ccc2c(c1)NC1(CCN(c3ccc(-c4cn[nH]c4)cc3)C1=O)C2 (single isomer, unassigned)")
"< 3 nM"
>>> obs_value("COc1cccc(CN2CCN(c3ccc(-c4cn[nH]c4)c(OC)c3)C2=O)c1")
"2.1 to 20 nM"
>>> obs_value("O=C1N(c2ccc(-c3cn[nH]c3)cc2)CCN1C(CO)c1ccccc1 (single isomer, unassigned)")
"2.1 to 20 nM"
>>> obs_value("COc1ccc(C(=O)N2CCC3(CC2)CCN(c2ccc(-c4cn[nH]c4)c(OC)c2)C3=O)nc1")
"13 nM"

Query string: // query IC50 value for entry Cn1cc(C(=O)Nc2cccc(-n3nc(Nc4ccc5[nH]ncc5c4)c4ccccc43)c2)cn1
Result string: 300 to 3000 nM

Query string: // query IC50 value for entry CN1CCC(OC(=O)N2Cc3ccc(-c4nccc(Nc5ccc(-c6cn[nH]c6)cc5)n4)cc3C2)C1 (stereo not drawn)
Result string: 51 nM

Query string: // query IC50 value for entry COc1ccc(CCC(=O)N2CCC3(CC2)CN(c2ccc(-c4cn[nH]c4)cn2)C(=O)C3Nc2cccc(OC)c2)cc1 (stereo not drawn)
Result string: 250 to 3000 nM

Query string: // query IC50 value for entry CCOC(=O)c1ccc(CN2CCC[C@@H](Nc3ccc4[nH]ncc4c3)C2)cc1
Result string: 6190 nM

Query string: // query IC50 value for entry Cc1cn(-c2ccc3c(c2)CCN(CC(C)C)C3=O)nc1Nc1ccc2[nH]ncc2c1Cl
Result string: < 300 nM

Query string: // query IC50 value for entry O=c1[nH]nc([C@H]2CC3(C[C@H](Nc4nnc(-c5ccccc5)s4)C3)C2)c2ccccc12 (stereo partly drawn)
Result string: 5.1 to 15 nM

Query string: // query IC50 value for entry O=C(OCCOc1cccc(CN2CCC[C@H](Nc3ccc4[nH]ncc4c3)C2)c1)c1ccccc1
Result string: 1230 nM

---

Several publications report IC50 on UniProt O75116; those values are gathered here.

As a guide, the following entries are already answered.
>>> obs_value("COc1cc(F)cc(Cn2c(C(C)(C)O)nn(-c3ccc(-c4cn[nH]c4)cc3)c2=O)c1")
"5 to 50 nM"
>>> obs_value("COc1ccc2c(c1)N(C)C1(CCN(c3ccc(-c4cn[nH]c4)cc3)C1=O)C2 (centres unmarked)")
"30 to 300 nM"
>>> obs_value("CCc1nc(N2CC3(CCN(C(=O)C4COC4)CC3)N(Cc3cccc(F)c3C)C2=O)ccc1-c1cn[nH]c1")
"< 3 nM"
>>> obs_value("O=c1n(Cc2cccc(F)c2F)ccn1-c1ccc(-c2cn[nH]c2)cc1")
"20.1 to 200 nM"

# next molecule below
Query string: // query IC50 value for entry [H][C@]1(c2n[nH]c(=O)c3ccccc32)C[C@]2(C[C@@H](NC(=O)c3nc(-c4ccncc4)sc3C)C2)C1 (some centres unmarked)
Result string: 15.1 to 100 nM

---

Several publications report pIC50 on UniProt:O75116; those values are gathered here.
pIC50: −log10 of the molar value.

As a guide, the following entries are already answered.
>>> obs_value("COc1cc(F)cc(CNC(=O)N2CCc3cc(-c4cn[nH]c4)c(C#N)cc32)c1")
"6.30 to 7.30"
>>> obs_value("Cn1c(C(=O)N2CC(F)(F)C2)cc2c1CN(c1ncc(F)c(Nc3ccc(-c4cn[nH]c4)cc3)n1)CC2")
"≥ 7.30"
>>> obs_value("O=C1N(Cc2cccc(Cl)c2)CCN1c1ccc(-c2cn[nH]c2)cn1")
"6.70 to 7.70"

Query string: Observed pIC50 on UniProt:O75116 for O=C1N(c2ccc(-c3ccncc3)cc2)CCC12Cc1ccccc1N2 (centres unmarked) , please.
Result string: 7.52 to 8.52

Query string: Observed pIC50 on UniProt:O75116 for CCc1cc(N2CC(C)(C)N(Cc3cccc(OC)c3)C2=O)ccc1-c1cn[nH]c1 , please.
Result string: 7.70 to 8.68

Query string: Observed pIC50 on UniProt:O75116 for O=C1N(Cc2ccccc2)CCN1c1ccc(-c2cnoc2)cc1 , please.
Result string: 6.70 to 7.70

Query string: Observed pIC50 on UniProt:O75116 for COc1cccc(CN2C(=O)N(c3ccc(-c4cn[nH]c4)cn3)CC23CCN(CCC(F)(F)F)CC3)c1 , please.
Result string: 7.52 to 8.52
